Organism: Rattus norvegicus
EXPERIMENT NOTES: Open TG-GATES - Regimen: Single
Format: toxicity, organism-based, Sprague-Dawley
Design: regimen Single, gender Male, age 6 weeks
EXPERIMENTAL PARAMETERS: in vivo, po, 10 mg/kg, 6 h, tissue Blood, route gavage, dose level Low
ATTRIBUTE MEASURED: MCV (fL)
Dear colleague, please return just the value in fL, with no unit written.

Record CN(C)CCCN1c2ccccc2CCc2ccccc21 , field MCV: 66.5

Please fill in: MCV reported for CC1=C(/C=C/C(C)=C/C=C/C(C)=C/CO)C(C)(C)CCC1 = 62.3

Summary for this compound, CN(C)CCN(Cc1cccs1)c1ccccn1 : MCV is 65.3

Record summary for CN(C)CCCN1c2ccccc2CCc2ccc(Cl)cc21 : reported MCV = 65.5

====

Species: Rattus norvegicus
EXPERIMENT NOTES: Open TG-GATES - Regimen: Single
Type: toxicity, organism-based, Sprague-Dawley
Design: regimen Single, gender Male, age 6 weeks
EXPERIMENTAL PARAMETERS: in vivo, po, 30 mg/kg, 3 h, tissue Kidney, route gavage, dose level Middle
ATTRIBUTE MEASURED: KIDNEY_R (g)
Please respond with the number in g and leave the unit unwritten.

The compound CN(C)CCCN1c2ccccc2CCc2ccccc21 showed KIDNEY_R equal to 0.9

For this compound ( CC1=C(/C=C/C(C)=C/C=C/C(C)=C/CO)C(C)(C)CCC1 ), measured KIDNEY_R is 0.9

Notebook: CN(C)CCCN1c2ccccc2CCc2ccc(Cl)cc21 , KIDNEY_R read as 1

KIDNEY_R for CN(C)CCN(Cc1cccs1)c1ccccn1 is 0.9

====

Species: Rattus norvegicus
EXPERIMENT NOTES: Open TG-GATES - Regimen: Daily Repeat
Assay type: toxicity, organism-based, Sprague-Dawley
Set-up: regimen Daily Repeat, gender Male, age 6 weeks
EXPERIMENTAL PARAMETERS: in vivo, po, 1000 mg/kg, […], tissue Blood, route gavage, dose level High, time 7 day
ATTRIBUTE MEASURED: PT (s)
I only need the number, in s, no unit after it.

Record COC1=CC(=O)C[C@@H](C)[C@]12Oc1c(Cl)c(OC)cc(OC)c1C2=O [GRISEOFULVIN] . Reported PT: 12.4

For record CCOC(=O)CCC(=O)O[C@H]1[C@H](O[C@@H]2[C@@H](C)[C@H](O[C@H]3C[C@@](C)(OC)[C@@H](O)[C@H](C)O3)[C@@H](C)C(=O)O[C@H](CC)[C@@](C)(O)[C@H](O)[C@@H](C)C(=O)[C@H](C)C[C@@]2(C)O)O[C@H](C)C[C@@H]1N(C)C [ERYTHROMYCIN ETHYLSUCCINATE] the listed PT is 16.6

Entry under test: COc1ccc2[nH]c([S+]([O-])Cc3ncc(C)c(OC)c3C)nc2c1 (stereo not given) [OMEPRAZOLE] . Its PT was 11.9

// PT lookup, compound = NC(N)=Nc1nc(CSCCC(N)=NS(N)(=O)=O)cs1 [FAMOTIDINE] , result: 12.1

The recorded PT for entry CCOc1ccc(NC(=O)CC(C)O)cc1 (stereo not given) [BUCETIN] equals 14.3

====

Organism: Rattus norvegicus
EXPERIMENT NOTES: Open TG-GATES - Regimen: Daily Repeat
Format: toxicity, organism-based, Sprague-Dawley
Set-up: regimen Daily Repeat, gender Male, age 6 weeks
EXPERIMENTAL PARAMETERS: in vivo, po, 0 mg/kg, 72 h, tissue Blood, route gavage, dose level Control, time 3 day
Assignment: determine reported PT for the given compounds.
Kindly provide the numeric value in s only, without the unit symbol.

compound CCOC(=O)CCC(=O)O[C@H]1[C@H](O[C@@H]2[C@@H](C)[C@H](O[C@H]3C[C@@](C)(OC)[C@@H](O)[C@H](C)O3)[C@@H](C)C(=O)O[C@H](CC)[C@@](C)(O)[C@H](O)[C@@H](C)C(=O)[C@H](C)C[C@@]2(C)O)O[C@H](C)C[C@@H]1N(C)C [ERYTHROMYCIN ETHYLSUCCINATE] , PT observed: 16.3

Memo: NNC(=O)c1ccncc1 , reported PT: 12.1

What the record says about CN(C)CCN(Cc1cccs1)c1ccccn1 : PT is 15.9

response.value for COc1ccc2[nH]c([S+]([O-])Cc3ncc(C)c(OC)c3C)nc2c1 (stereo unspecified) (field: PT) = 12.2

Reported PT of CCCNC(=O)NS(=O)(=O)c1ccc(Cl)cc1 [CHLORPROPAMIDE] : 15.4

For record CN1C(=O)CN=C(c2ccccc2)c2cc(Cl)ccc21 the listed PT is 12

So, CC1=C(/C=C/C(C)=C/C=C/C(C)=C/CO)C(C)(C)CCC1 ? Its PT was 16.6

The compound identified as CCOc1ccc(NC(=O)CC(C)O)cc1 (stereo unspecified) registered its PT at 14

The value of PT measured for the compound NC(N)=Nc1nc(CSCCC(N)=NS(N)(=O)=O)cs1 turned out to be 11.8

compound COC1=CC(=O)C[C@@H](C)[C@]12Oc1c(Cl)c(OC)cc(OC)c1C2=O , PT observed: 13.1

The compound listed as CN(C)CCCN1c2ccccc2CCc2ccccc21 shows PT equal to 15.8

====

I'd appreciate it if you could supply IP values for the items below.
Species on record: Rattus norvegicus
EXPERIMENT NOTES: Open TG-GATES - Regimen: Single
Assay type: toxicity, organism-based, Sprague-Dawley
Set-up: regimen Single, gender Male, age 6 weeks
EXPERIMENTAL PARAMETERS: in vivo, po, 1000 mg/kg, 6 h, tissue Plasma, route gavage, dose level High
Give just the number in mg/dL; leave the unit off.

Looking up NC(N)=Nc1nc(CSCCC(N)=NS(N)(=O)=O)cs1 , I see its IP listed as 8.9

// sample CC(C)OC(=O)C(C)(C)Oc1ccc(C(=O)c2ccc(Cl)cc2)cc1 [FENOFIBRATE] , its IP was 9

IP for CCOC(=O)CCC(=O)O[C@H]1[C@H](O[C@@H]2[C@@H](C)[C@H](O[C@H]3C[C@@](C)(OC)[C@@H](O)[C@H](C)O3)[C@@H](C)C(=O)O[C@H](CC)[C@@](C)(O)[C@H](O)[C@@H](C)C(=O)[C@H](C)C[C@@]2(C)O)O[C@H](C)C[C@@H]1N(C)C [ERYTHROMYCIN ETHYLSUCCINATE] is 10

For this molecule ( COC1=CC(=O)C[C@@H](C)[C@]12Oc1c(Cl)c(OC)cc(OC)c1C2=O ), measured IP is 9.1

Form field IP, entry COc1ccc2[nH]c([S+]([O-])Cc3ncc(C)c(OC)c3C)nc2c1 (stereo not given) : 9.7

====

Organism: Rattus norvegicus
EXPERIMENT NOTES: Open TG-GATES - Regimen: Daily Repeat
Format: toxicity, organism-based, Sprague-Dawley
Set-up: regimen Daily Repeat, gender Male, age 6 weeks
EXPERIMENTAL PARAMETERS: in vivo, po, 300 mg/kg, 72 h, tissue Plasma, route gavage, dose level Middle, time 3 day
Assign IP to each entry below.
Expressed in mg/dL, but write only the number.

# compound CCOc1ccc(NC(=O)CC(C)O)cc1 (stereo not given) [BUCETIN] ; its IP = 6.9

GET /value?item= CCOC(=O)CCC(=O)O[C@H]1[C@H](O[C@@H]2[C@@H](C)[C@H](O[C@H]3C[C@@](C)(OC)[C@@H](O)[C@H](C)O3)[C@@H](C)C(=O)O[C@H](CC)[C@@](C)(O)[C@H](O)[C@@H](C)C(=O)[C@H](C)C[C@@]2(C)O)O[C@H](C)C[C@@H]1N(C)C [ERYTHROMYCIN ETHYLSUCCINATE] &field=IP returns 7.3

# compound COC1=CC(=O)C[C@@H](C)[C@]12Oc1c(Cl)c(OC)cc(OC)c1C2=O [GRISEOFULVIN] ; its IP = 7.6

Reported IP for NC(N)=Nc1nc(CSCCC(N)=NS(N)(=O)=O)cs1 [FAMOTIDINE] was 7.8

Sure, the documented IP for COc1ccc2[nH]c([S+]([O-])Cc3ncc(C)c(OC)c3C)nc2c1 (stereo not given) [OMEPRAZOLE] is 8.9

====

Species on record: Rattus norvegicus
EXPERIMENT NOTES: Open TG-GATES - Regimen: Daily Repeat
Type: toxicity, organism-based, Sprague-Dawley
Parameters: regimen Daily Repeat, gender Male, age 6 weeks
EXPERIMENTAL PARAMETERS: in vivo, po, 0 mg/kg, […], tissue Liver, route gavage, dose level Control, time 14 day
ATTRIBUTE MEASURED: LIVER (g)
Answer with a number only, understood to be in g.

LIVER recorded for this molecule, COc1ccc2[nH]c([S+]([O-])Cc3ncc(C)c(OC)c3C)nc2c1 (stereo unspecified) [OMEPRAZOLE] , is 13.5

GET /value?item= O=C(CCCN1CCC(O)(c2ccc(Cl)cc2)CC1)c1ccc(F)cc1 [HALOPERIDOL] &field=LIVER returns 14

LIVER reported for this molecule CN(C)CCN(Cc1cccs1)c1ccccn1 : 11.5

Item: CCOC(=O)CCC(=O)O[C@H]1[C@H](O[C@@H]2[C@@H](C)[C@H](O[C@H]3C[C@@](C)(OC)[C@@H](O)[C@H](C)O3)[C@@H](C)C(=O)O[C@H](CC)[C@@](C)(O)[C@H](O)[C@@H](C)C(=O)[C@H](C)C[C@@]2(C)O)O[C@H](C)C[C@@H]1N(C)C [ERYTHROMYCIN ETHYLSUCCINATE] | LIVER: 14.7

Lab book: LIVER of NNC(=O)c1ccncc1 [ISONIAZID] noted as 13.3

For this molecule ( CCOc1ccc(NC(=O)CC(C)O)cc1 (stereo unspecified) [BUCETIN] ), measured LIVER is 17.3

The value of LIVER measured for the molecule COC1=CC(=O)C[C@@H](C)[C@]12Oc1c(Cl)c(OC)cc(OC)c1C2=O [GRISEOFULVIN] turned out to be 13.6

Per the record, CCCNC(=O)NS(=O)(=O)c1ccc(Cl)cc1 [CHLORPROPAMIDE] has LIVER of 13.6

# LIVER of CN1C(=O)CN=C(c2ccccc2)c2cc(Cl)ccc21 [DIAZEPAM] = 14.8

Lab book: LIVER of CC1=C(/C=C/C(C)=C/C=C/C(C)=C/CO)C(C)(C)CCC1 [RETINOL] noted as 13.8

LIVER reported for this molecule NC(N)=Nc1nc(CSCCC(N)=NS(N)(=O)=O)cs1 [FAMOTIDINE] : 14
